tested.target: SARS-CoV-2 S2 protein (SARS-CoV-2, UniProt P0DTC2 686-1213)
Provide the reported pKd of each item.
Reminder that pKd is minus the log10 of a molar concentration.

Sure, the documented pKd for AB-009676 (antibody, V domains shown) VH: QVQLQQWGAGLLKPSETLSLTCAVYGGSFSGYYWSWIRQPPGKGLEWIGEINHSGSTNYNPSLKSRVTISVDTSKNQFSLKLSSVTAADTAVYYCARLSRQWLVRPHIYYFDYWGQGTLVTVSS VL: DIQMTQSPSTLSASVGDRVTITCRASQSVSSYLNWYQQKPGKAPKLLIYAASSLQSGVPSRFSGSGSGTDFTLTISSLQPEDFATYFCQQSYSTPRTFGQGTKLEIK is 10.34

pKd recorded for this binder, AB-009283 (antibody, V domains shown) VH: EVQLVESGGGLIQPGGSLRLSCAASGFTVSSNYMSWVRQAPGKGLEWVSVIYSGGSTYYADSVKGRFTISRDNSKNTLYLQMNSLRAEDTAVYYCATSSFDYYYYFMDVWGKGTTVTVSS VL: SYELTQPPSVSVSPGQTASITCSGDKLGDKYACWYHQKPGQSPVLVIYQDTKRPSGIPERFSASNSGNTATLTISGTQALDEADYYCQAWDSSIVVFGGGTKLTVL , is 7.64

Recorded pKd (binder AB-009273 (antibody, V domains shown) VH: QVQLVQSGAEVKKPGSSVKVSCKASGGTFSSYAISWVRQAPGQGLEWMGGIIPIFGTANYAQKFQGRVTITTDESTSTAYMELSSLRSEDTAVYYCARVGVYDSSGYYFDYWGQGTLVTVSS VL: EIVLTQSPATLSLSPGERATLSCRASQSVSSYLAWYQQKPGQAPRLLIYDASNRATGIPARFSGSGSGTDFTLTISSLEPEDFAVYYCQQRSNWPPRLTFGGGTKVEIK ): 8.16
